So I've got a bunch of variants here, and I need their abundance fitness values.
B1: DnaJ homolog subfamily C member 5, residues 16 to 77; numbered along this chain, Q9H3Z4 (parent)
chain: LYHVLGLDKNATSDDIKKSYRKLALKYHPDKNPDNPEAADKFKEINNAHAILTDATKRNIYD

Variants of: B1
Assay: abundance fitness (aPCA) (normalised: wild type 0, dead -1); higher = more abundant; growth selection in yeast, the domain comes from the species named
Conditions: Homo sapiens
Numbers only.

[[record]]
sequence_data = "LHHVLGLDKNATSDDIKKSYRKLALKYHPDKNPDNPEAADKFKEINNAHAILTDATKRNIYD"
quantity_name = "abundance fitness"
observed_measurement = -0.492

[[record]]
sequence_data = "LYHVLGLDKNATSDDIKKSYRKLALKYHPDKNPDNPSAADKFKEINNAHAILTDATKRNIYD"
quantity_name = "abundance fitness"
observed_measurement = 0.036


Please go through the list and note abundance fitness for each variant.
1. LYHVLGLDKNATSDDIKKSYRKLALKYHPDKNPDNPEAADKFKEINNAHAIATDATKRNIYD
2. LYHVLGKDKNATSDDIKKSYRKLALKYHPDKNPDNPEAADKFKEINNAHAILTDATKRNIYD
3. LYHVLGLDKNATSDDIKKSYRKLALKYHPDANPDNPEAADKFKEINNAHAILTDATKRNIYD
4. LYHVLGLDKNATSDDIKKSYRKLALKYHPDKNMDNPEAADKFKEINNAHAILTDATKRNIYD
5. LYHQLGLDKNATSDDIKKSYRKLALKYHPDKNPDNPEAADKFKEINNAHAILTDATKRNIYD
6. LYHVLGLDKNATSDDIKKSYRKLALKYHPDKNPDNPEAADKFKEINNAHAILTDATKRHIYD

1: -0.303; 2: -0.365; 3: -0.065; 4: -0.489; 5: -0.546; 6: -0.125
